- test-target: telomerase (Homo sapiens, UniProt O14746)
- Sequence (O14746 whole entry): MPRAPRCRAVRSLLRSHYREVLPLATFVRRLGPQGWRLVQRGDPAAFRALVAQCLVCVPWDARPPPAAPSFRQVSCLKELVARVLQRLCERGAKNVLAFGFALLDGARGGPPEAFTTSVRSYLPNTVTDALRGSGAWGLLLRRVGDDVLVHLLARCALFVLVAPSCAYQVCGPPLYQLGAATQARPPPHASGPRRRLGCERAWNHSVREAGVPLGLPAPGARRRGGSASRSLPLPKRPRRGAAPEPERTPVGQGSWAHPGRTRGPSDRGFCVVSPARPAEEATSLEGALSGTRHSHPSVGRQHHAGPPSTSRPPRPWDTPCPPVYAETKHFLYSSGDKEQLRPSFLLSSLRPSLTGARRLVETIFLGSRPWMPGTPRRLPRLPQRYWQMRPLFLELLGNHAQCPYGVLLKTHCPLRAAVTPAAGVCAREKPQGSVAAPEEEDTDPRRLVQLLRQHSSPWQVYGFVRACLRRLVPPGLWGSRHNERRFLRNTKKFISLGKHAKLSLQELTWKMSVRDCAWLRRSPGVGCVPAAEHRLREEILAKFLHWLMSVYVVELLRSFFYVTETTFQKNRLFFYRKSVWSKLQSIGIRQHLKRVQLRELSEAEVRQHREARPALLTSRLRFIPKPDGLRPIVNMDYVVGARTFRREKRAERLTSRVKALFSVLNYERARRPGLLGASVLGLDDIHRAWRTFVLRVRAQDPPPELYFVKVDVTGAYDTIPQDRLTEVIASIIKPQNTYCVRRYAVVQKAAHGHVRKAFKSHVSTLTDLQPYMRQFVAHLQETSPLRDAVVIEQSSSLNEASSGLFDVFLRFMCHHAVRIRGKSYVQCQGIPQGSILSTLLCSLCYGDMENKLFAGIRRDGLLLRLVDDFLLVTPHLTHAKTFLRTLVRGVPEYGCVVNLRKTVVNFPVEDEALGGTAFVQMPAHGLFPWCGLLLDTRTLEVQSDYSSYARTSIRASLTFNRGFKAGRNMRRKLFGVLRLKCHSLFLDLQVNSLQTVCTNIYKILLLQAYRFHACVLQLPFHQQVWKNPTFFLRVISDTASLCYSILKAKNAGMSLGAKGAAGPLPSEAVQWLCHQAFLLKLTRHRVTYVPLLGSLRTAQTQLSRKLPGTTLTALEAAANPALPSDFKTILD
- protocol-description: Direct telomerase repeat addition assay with radiolabeled dNTPs: dNTP titration, repeat processivity R1/2
- Format: biochemical
- Parameters: made in house; anti-FLAG immunopurification, eluted with 3xFLAG peptide
- condition-notes: (TTAGGG)3 primer; indicated dNTP at 5 μM, remaining three natural dNTPs at cellular concentration; Mean
parameter: Processivity R 1/2
Give the figure only, with no unit attached.

Enquiry: What value of measured Processivity R 1/2 is listed for Cc1cn(C2CC(O)C(COP(=O)(O)OP(=O)(O)OP(=O)(O)O)O2)c(=O)[nH]c1=O (stereo not drawn) ?
Return: 2.06

Enquiry: What value of measured Processivity R 1/2 is listed for Nc1ncnc2c1[nH]c(=O)n2C1CC(O)C(COP(=O)(O)OP(=O)(O)OP(=O)(O)O)O1 (stereo not drawn) ?
Return: 0

Enquiry: What value of measured Processivity R 1/2 is listed for Cc1cn([C@H]2C[C@H](N=[N+]=[N-])[C@@H](CO[P@](=O)(O)O[P@](=O)(O)OP(=O)(O)O)O2)c(=O)[nH]c1=O ?
Return: 0

Enquiry: What value of measured Processivity R 1/2 is listed for Nc1ncnc2c1ncn2C1CC(O)C(COP(=O)(O)OP(=O)(O)OP(=O)(O)O)O1 (stereo not drawn) ?
Return: 2.10

Enquiry: What value of measured Processivity R 1/2 is listed for Nc1nc(O)nc2c1ncn2C1CC(O)C(COP(=O)(O)OP(=O)(O)OP(=O)(O)O)O1 (stereo not drawn) ?
Return: 0.57

Enquiry: What value of measured Processivity R 1/2 is listed for Nc1nc2c(ncn2C2CC(O)C(COP(=O)(O)OP(=O)(O)OP(=O)(O)O)O2)c(=O)[nH]1 (stereo not drawn) ?
Return: 2.39

Enquiry: What value of measured Processivity R 1/2 is listed for O=c1[nH]cnc2c1ncn2C1CCC(COP(=O)(O)OP(=O)(O)OP(=O)(O)O)O1 (stereo not drawn) ?
Return: 0

Enquiry: What value of measured Processivity R 1/2 is listed for Nc1nc2c([nH]c(=O)n2C2CC(O)C(COP(=O)(O)OP(=O)(O)OP(=O)(O)O)O2)c(=O)[nH]1 (stereo not drawn) ?
Return: 0

Enquiry: What value of measured Processivity R 1/2 is listed for Nc1nc2c(ncn2C2CC(O)C(COP(=O)(O)OP(=O)(O)OP(=O)(O)O)O2)c(=S)[nH]1 (stereo not drawn) ?
Return: 0

* * *

- test-target: UniProtKB Q0QHL8
- Sequence (Q0QHL8 entry or part of it): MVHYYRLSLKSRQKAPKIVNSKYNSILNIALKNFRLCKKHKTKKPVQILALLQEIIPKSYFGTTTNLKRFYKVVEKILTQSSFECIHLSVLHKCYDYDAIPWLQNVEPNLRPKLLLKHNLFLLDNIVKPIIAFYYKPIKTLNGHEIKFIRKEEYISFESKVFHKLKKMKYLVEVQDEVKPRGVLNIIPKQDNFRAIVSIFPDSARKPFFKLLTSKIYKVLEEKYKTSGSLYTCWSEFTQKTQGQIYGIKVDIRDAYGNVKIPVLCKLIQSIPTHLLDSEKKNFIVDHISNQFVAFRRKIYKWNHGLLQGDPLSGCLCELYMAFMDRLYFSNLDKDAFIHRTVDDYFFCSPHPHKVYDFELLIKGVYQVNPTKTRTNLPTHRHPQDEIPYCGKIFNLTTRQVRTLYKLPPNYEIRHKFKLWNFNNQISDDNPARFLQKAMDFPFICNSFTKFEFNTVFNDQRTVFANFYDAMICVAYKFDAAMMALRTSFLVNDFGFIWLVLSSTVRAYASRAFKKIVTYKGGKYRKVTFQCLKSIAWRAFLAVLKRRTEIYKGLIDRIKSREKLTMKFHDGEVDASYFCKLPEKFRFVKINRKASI
- protocol-description: Pre-steady-state single-turnover kinetics of tcTERT single nucleotide insertion
- Assay type: biochemical
- condition-notes: dNTP binding to tcTERT-primer-template complex
parameter: pKd
Just the number, please; pKd means minus log10 of the concentration in mol/L.

Enquiry: Lab note: need pKd for Nc1nc2c(ncn2C2CC(O)C(COP(=O)(O)OP(=O)(O)OP(=O)(O)O)O2)c(=S)[nH]1 (stereo not shown) on UniProtKB Q0QHL8, anyone have it?
Return: 4.03

* * *

For each of the compounds below, state its Percent Primer Extension.
- test-target: telomerase (Homo sapiens, UniProt O14746)
- protocol-description: Telomerase extension of 32P-end labeled primers with a single dNTP (percent primer extension)
- Assay type: biochemical
- Set-up: made in house; anti-FLAG immunopurification, eluted with 3xFLAG peptide
- condition-notes: Primer 3 (AGGGTT)3, first template base rU5; 50 μM single dNTP; single experiments n1-n3
Enter your answer as a number in %; do not include the unit.

Enquiry: What value of measured Percent Primer Extension is listed for Nc1ncnc2c1[nH]c(=O)n2C1CC(O)C(COP(=O)(O)OP(=O)(O)OP(=O)(O)O)O1 (centres unmarked) ?
Return: 0.00

Enquiry: What value of measured Percent Primer Extension is listed for Nc1ccn([C@H]2C[C@H](O)[C@@H](COP(=O)(O)OP(=O)(O)OP(=O)(O)O)O2)c(=O)n1 ?
Return: 0.00

Enquiry: What value of measured Percent Primer Extension is listed for O=c1[nH]cnc2c1ncn2C1CCC(COP(=O)(O)OP(=O)(O)OP(=O)(O)O)O1 (centres unmarked) ?
Return: 0.00

Enquiry: What value of measured Percent Primer Extension is listed for Nc1nc2c([nH]c(=O)n2C2CC(O)C(COP(=O)(O)OP(=O)(O)OP(=O)(O)O)O2)c(=O)[nH]1 (centres unmarked) ?
Return: 0.00

Enquiry: What value of measured Percent Primer Extension is listed for Cc1cn([C@H]2C[C@H](N=[N+]=[N-])[C@@H](CO[P@](=O)(O)O[P@](=O)(O)OP(=O)(O)O)O2)c(=O)[nH]c1=O ?
Return: 0.00

* * *

- test-target: telomerase (Homo sapiens, UniProt O14746)
- protocol-description: Direct telomerase repeat addition assay with radiolabeled dNTPs: dNTP titration, repeat processivity R1/2
- Assay type: biochemical
- Set-up: made in house; anti-FLAG immunopurification, eluted with 3xFLAG peptide
- condition-notes: (TTAGGG)3 primer; indicated dNTP at 1 μM, remaining three natural dNTPs at cellular concentration; Mean
For each of the compounds below, state its Processivity R 1/2.
Give the figure only, with no unit attached.

Enquiry: What value of measured Processivity R 1/2 is listed for Nc1nc(O)nc2c1ncn2C1CC(O)C(COP(=O)(O)OP(=O)(O)OP(=O)(O)O)O1 (stereo not drawn) [2-OH-dATP] ?
Return: 0.43

Enquiry: What value of measured Processivity R 1/2 is listed for Nc1ncnc2c1[nH]c(=O)n2C1CC(O)C(COP(=O)(O)OP(=O)(O)OP(=O)(O)O)O1 (stereo not drawn) [8-oxo-dATP] ?
Return: 0

Enquiry: What value of measured Processivity R 1/2 is listed for Nc1nc2c([nH]c(=O)n2C2CC(O)C(COP(=O)(O)OP(=O)(O)OP(=O)(O)O)O2)c(=O)[nH]1 (stereo not drawn) [8-oxo-dGTP] ?
Return: 0

Enquiry: What value of measured Processivity R 1/2 is listed for O=c1[nH]cnc2c1ncn2C1CCC(COP(=O)(O)OP(=O)(O)OP(=O)(O)O)O1 (stereo not drawn) [ddITP] ?
Return: 0

Enquiry: What value of measured Processivity R 1/2 is listed for Nc1nc2c(ncn2C2CC(O)C(COP(=O)(O)OP(=O)(O)OP(=O)(O)O)O2)c(=S)[nH]1 (stereo not drawn) [6-thio-dGTP] ?
Return: 0

Enquiry: What value of measured Processivity R 1/2 is listed for Cc1cn([C@H]2C[C@H](N=[N+]=[N-])[C@@H](CO[P@](=O)(O)O[P@](=O)(O)OP(=O)(O)O)O2)c(=O)[nH]c1=O [AZT-TP] ?
Return: 0

Enquiry: What value of measured Processivity R 1/2 is listed for Nc1ncnc2c1ncn2C1CC(O)C(COP(=O)(O)OP(=O)(O)OP(=O)(O)O)O1 (stereo not drawn) [dATP] ?
Return: 1.47

Enquiry: What value of measured Processivity R 1/2 is listed for Cc1cn(C2CC(O)C(COP(=O)(O)OP(=O)(O)OP(=O)(O)O)O2)c(=O)[nH]c1=O (stereo not drawn) [dTTP] ?
Return: 1.90

Enquiry: What value of measured Processivity R 1/2 is listed for Nc1nc2c(ncn2C2CC(O)C(COP(=O)(O)OP(=O)(O)OP(=O)(O)O)O2)c(=O)[nH]1 (stereo not drawn) [dGTP] ?
Return: 1.78

* * *

- test-target: telomerase (Homo sapiens, UniProt O14746)
- protocol-description: Telomerase extension of 32P-end labeled primers with a single dNTP (percent primer extension)
- Assay type: biochemical
- Parameters: made in house; anti-FLAG immunopurification, eluted with 3xFLAG peptide
- condition-notes: Primer 3; 50µM dNTP
Mark Yes only when % Primer Extension stays strictly below 9%. Values equal to the cut-off are No.

Enquiry: Check if % Primer Extension falls below 9% for Nc1nc2c([nH]c(=O)n2C2CC(O)C(COP(=O)(O)OP(=O)(O)OP(=O)(O)O)O2)c(=O)[nH]1 (stereo not drawn) .
Return: Yes

Enquiry: Check if % Primer Extension falls below 9% for Nc1nc(O)nc2c1ncn2C1CC(O)C(COP(=O)(O)OP(=O)(O)OP(=O)(O)O)O1 (stereo not drawn) .
Return: No

Enquiry: Check if % Primer Extension falls below 9% for Cc1cn([C@H]2C[C@H](N=[N+]=[N-])[C@@H](CO)O2)c(=O)[nH]c1=O .
Return: Yes

Enquiry: Check if % Primer Extension falls below 9% for Nc1nc2c(ncn2C2CC(O)C(COP(=O)(O)OP(=O)(O)OP(=O)(O)O)O2)c(=S)[nH]1 (stereo not drawn) .
Return: Yes

Enquiry: Check if % Primer Extension falls below 9% for Nc1ccn([C@H]2C[C@H](O)[C@@H](COP(=O)(O)OP(=O)(O)OP(=O)(O)O)O2)c(=O)n1 .
Return: Yes

Enquiry: Check if % Primer Extension falls below 9% for Nc1ncnc2c1ncn2C1CC(O)C(COP(=O)(O)OP(=O)(O)OP(=O)(O)O)O1 (stereo not drawn) .
Return: No

Enquiry: Check if % Primer Extension falls below 9% for O=c1[nH]cnc2c1ncn2C1CCC(COP(=O)(O)OP(=O)(O)OP(=O)(O)O)O1 (stereo not drawn) .
Return: Yes

Enquiry: Check if % Primer Extension falls below 9% for Nc1ncnc2c1[nH]c(=O)n2C1CC(O)C(COP(=O)(O)OP(=O)(O)OP(=O)(O)O)O1 (stereo not drawn) .
Return: Yes
